experiment: Antiproliferative activity against human L02 cells after 48 hrs by MTT assay
Type: cell-based
condition_label: L02, 48 h
pIC50: −log10 of the molar value.
Decision: pIC50 >= 4 yields MET, all other cases yield NOT MET.

Prompt: pIC50 >= 4 for `CN(C)C(=O)N(CCCN1CCOCC1)Cc1cccc([N+](=O)[O-])c1` ?
Response: NOT MET

Prompt: pIC50 >= 4 for `CN(C)C(=O)N(CCN1CCOCC1)Cc1cc([N+](=O)[O-])ccc1O` ?
Response: MET

Prompt: pIC50 >= 4 for `CN(C)C(=O)N(CCN1CCOCC1)Cc1ccc([N+](=O)[O-])cc1` ?
Response: MET

Prompt: pIC50 >= 4 for COc1cc([C@@H]2c3cc4c(cc3[C@@H](O[C@@H]3O[C@@H]5CO[C@@H](C)O[C@H]5[C@H](O)[C@H]3O)[C@H]3COC(=O)[C@H]23)OCO4)cc(OC)c1O [ETOPOSIDE] ?
Response: MET

Prompt: pIC50 >= 4 for `CN(C)C(=O)N(CCN1CCOCC1)Cc1cccc([N+](=O)[O-])c1` ?
Response: NOT MET

Prompt: pIC50 >= 4 for `CN(C)C(=O)N(CCN1CCOCC1)Cc1cc(Br)ccc1O` ?
Response: MET

---

Give IC50 for every item shown.
experiment: Antiproliferative activity against human L02 cells after 48 hrs by MTT assay
Type: cell-based
condition_label: L02, 48 h
Give the number; µM is assumed, so skip it.

Prompt: Which IC50 value is on record for `CN(C)C(=O)N(CCCN1CCOCC1)Cc1cc([N+](=O)[O-])ccc1O` ?
Response: 125

Prompt: Which IC50 value is on record for `CN(C)C(=O)N(CCN1CCOCC1)Cc1cc(Cl)ccc1O` ?
Response: 82

Prompt: Which IC50 value is on record for `CN(C)C(=O)N(CCCN1CCOCC1)Cc1cc(Br)ccc1O` ?
Response: 86

Prompt: Which IC50 value is on record for `CN(C)C(=O)N(CCN1CCOCC1)Cc1ccc(O)cc1` ?
Response: 81

Prompt: Which IC50 value is on record for `CN(C)C(=O)N(CCCN1CCOCC1)Cc1ccc(O)cc1` ?
Response: 109

Prompt: Which IC50 value is on record for `CN(C)C(=O)N(CCCN1CCOCC1)Cc1ccc([N+](=O)[O-])cc1` ?
Response: 85

Prompt: Which IC50 value is on record for `CN(C)C(=O)N(CCCN1CCOCC1)Cc1cc(Cl)ccc1O` ?
Response: 81

This collection of values is drawn from ChEMBL document CHEMBL1153860.
